- System: metastatic breast adenocarcinoma cells
- experimentalDetails: XTT cytotoxicity, metastatic breast adenocarcinoma cells
- Format: cell-based
- settings: highest of the range
measuredQuantity: IC50 (nM)

[[record]]
molecule = "CCCCCOC(=O)c1[nH]c2c(c1C)C(=O)CC(c1ncco1)C2 (stereo not shown) [SMS077]"
testedon = "metastatic breast adenocarcinoma cells"
measuredquantity = "IC50"
recordedresult = 426


---

- Test system: RPMI 8226 cells
- experimentalDetails: XTT cytotoxicity, RPMI 8226
- Type: cell-based
- settings: Homo sapiens; RPMI 8226, multiple myeloma, non-resistant; read-out: IC50
pIC50: −log10 of the molar value.
Decide by pIC50: equal to or exceeding 7 means 1, less means 0.

[[record]]
compound = "CCCCCOC(=O)c1[nH]c2c(c1C)C(O)CC(c1ncco1)C2 (centres unmarked)"
qualitativelabel = 0

[[record]]
compound = "Cc1c(C(=O)OCCCCO)[nH]c2c1C(=O)CC(c1ncco1)C2 (centres unmarked)"
qualitativelabel = 0

[[record]]
compound = "CCCCCOC(=O)c1[nH]c2c(c1C)C(=O)CC(c1ccco1)C2 (centres unmarked) [SMS001, reference compound]"
qualitativelabel = 1

[[record]]
compound = "CC[C@]1(O)C[C@H]2CN(CCc3c([nH]c4ccccc34)[C@@](C(=O)OC)(c3cc4c(cc3OC)N(C=O)[C@H]3[C@@](O)(C(=O)OC)[C@H](OC(C)=O)[C@]5(CC)C=CCN6CC[C@]43[C@@H]65)C2)C1 [Vincristine, reference compound]"
qualitativelabel = 1

[[record]]
compound = "CCCCCOC(=O)c1[nH]c2c(c1C)C(=O)CN(c1ccccc1)C2"
qualitativelabel = 0

[[record]]
compound = "Cc1c(C(=O)OCCCCO)oc2c1C(=O)CC(c1ncco1)C2 (centres unmarked)"
qualitativelabel = 0

